Values compiled from patent US20110044996A1.

Listed next: entries and their corresponding kon.
# system.name: T1, recombinant human GM-CSF (Peprotech) (human, UniProt P04141 18-144)
# T1 construct: Commercial recombinant protein; also called granulocyte-macrophage colony stimulating factor
# test.protocol: SPR (BIAcore); recombinant human GM-CSF coupled to CM5 chip, antibody injected at 66.7-4.17 nM
Give just the number in M⁻¹ s⁻¹; leave the unit off.

*Q* GET /values?readout=kon&item= hGM4/3 (antibody, V domains shown, Heavy h4/30 with human gamma 1 constant (hG1), light h4a with human kappa constant (hKa); also called h4K21-3; 4K21-3) VH: EVQLVESGGGLVQPGGSLRLSCSASGFAFSAYDMSWVRQAPGKGLEWVAYISSGGSSFYYPDTVKGRFTISRDNAKNSLFLQMSSLRAEDTAVYYCARHLGFDYWGQGTTVTVSS VL: DVVMTQSPLSLPVTLGQPASISCRSSQSLVNSNGNTYLHWFQQRPGQSPRRLIYKVSNRFSGVPDRFSGSGSGTDFTLKISRVEAEDVGVYYCSQSTHVPPTFGGGTKVEIK
*A* 210000

*Q* GET /values?readout=kon&item= murine monoclonal antibody 4K21-O11-E14 (antibody, V domains shown, Murine hybridoma antibody (ECACC 07051601); also called 4K21-O11-E14 (mouse); mAb 4K21) VH: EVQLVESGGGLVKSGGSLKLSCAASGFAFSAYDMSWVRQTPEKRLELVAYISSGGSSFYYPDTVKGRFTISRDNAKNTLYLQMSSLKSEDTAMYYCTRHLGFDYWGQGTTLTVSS VL: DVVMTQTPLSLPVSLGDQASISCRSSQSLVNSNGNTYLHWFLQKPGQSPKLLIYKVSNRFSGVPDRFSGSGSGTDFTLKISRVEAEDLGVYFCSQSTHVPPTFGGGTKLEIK
*A* 59000

*Q* GET /values?readout=kon&item= hGM4/5 (antibody, V domains shown, Heavy h4/50 with human gamma 1 constant (hG1), light h4a with human kappa constant (hKa); also called h4K21-5) VH: EVQLVESGGGLVKSGGSLTLSCAASGFAFSAYDMSWIRQAPGKGLEWVSYISSGGSSFYYPDTVKGRFTISRDNAKNSLYLQMNSLKDEDTAVYYCARHLGFDYWGQGTLVTVSS VL: DVVMTQSPLSLPVTLGQPASISCRSSQSLVNSNGNTYLHWFQQRPGQSPRRLIYKVSNRFSGVPDRFSGSGSGTDFTLKISRVEAEDVGVYYCSQSTHVPPTFGGGTKVEIK
*A* 140000
